- Target Under Test: human Nav1.7 (Homo sapiens)
- Construct: expressed in transfected cells; host or cells: HEK293
- Sequence (Q15858 whole entry): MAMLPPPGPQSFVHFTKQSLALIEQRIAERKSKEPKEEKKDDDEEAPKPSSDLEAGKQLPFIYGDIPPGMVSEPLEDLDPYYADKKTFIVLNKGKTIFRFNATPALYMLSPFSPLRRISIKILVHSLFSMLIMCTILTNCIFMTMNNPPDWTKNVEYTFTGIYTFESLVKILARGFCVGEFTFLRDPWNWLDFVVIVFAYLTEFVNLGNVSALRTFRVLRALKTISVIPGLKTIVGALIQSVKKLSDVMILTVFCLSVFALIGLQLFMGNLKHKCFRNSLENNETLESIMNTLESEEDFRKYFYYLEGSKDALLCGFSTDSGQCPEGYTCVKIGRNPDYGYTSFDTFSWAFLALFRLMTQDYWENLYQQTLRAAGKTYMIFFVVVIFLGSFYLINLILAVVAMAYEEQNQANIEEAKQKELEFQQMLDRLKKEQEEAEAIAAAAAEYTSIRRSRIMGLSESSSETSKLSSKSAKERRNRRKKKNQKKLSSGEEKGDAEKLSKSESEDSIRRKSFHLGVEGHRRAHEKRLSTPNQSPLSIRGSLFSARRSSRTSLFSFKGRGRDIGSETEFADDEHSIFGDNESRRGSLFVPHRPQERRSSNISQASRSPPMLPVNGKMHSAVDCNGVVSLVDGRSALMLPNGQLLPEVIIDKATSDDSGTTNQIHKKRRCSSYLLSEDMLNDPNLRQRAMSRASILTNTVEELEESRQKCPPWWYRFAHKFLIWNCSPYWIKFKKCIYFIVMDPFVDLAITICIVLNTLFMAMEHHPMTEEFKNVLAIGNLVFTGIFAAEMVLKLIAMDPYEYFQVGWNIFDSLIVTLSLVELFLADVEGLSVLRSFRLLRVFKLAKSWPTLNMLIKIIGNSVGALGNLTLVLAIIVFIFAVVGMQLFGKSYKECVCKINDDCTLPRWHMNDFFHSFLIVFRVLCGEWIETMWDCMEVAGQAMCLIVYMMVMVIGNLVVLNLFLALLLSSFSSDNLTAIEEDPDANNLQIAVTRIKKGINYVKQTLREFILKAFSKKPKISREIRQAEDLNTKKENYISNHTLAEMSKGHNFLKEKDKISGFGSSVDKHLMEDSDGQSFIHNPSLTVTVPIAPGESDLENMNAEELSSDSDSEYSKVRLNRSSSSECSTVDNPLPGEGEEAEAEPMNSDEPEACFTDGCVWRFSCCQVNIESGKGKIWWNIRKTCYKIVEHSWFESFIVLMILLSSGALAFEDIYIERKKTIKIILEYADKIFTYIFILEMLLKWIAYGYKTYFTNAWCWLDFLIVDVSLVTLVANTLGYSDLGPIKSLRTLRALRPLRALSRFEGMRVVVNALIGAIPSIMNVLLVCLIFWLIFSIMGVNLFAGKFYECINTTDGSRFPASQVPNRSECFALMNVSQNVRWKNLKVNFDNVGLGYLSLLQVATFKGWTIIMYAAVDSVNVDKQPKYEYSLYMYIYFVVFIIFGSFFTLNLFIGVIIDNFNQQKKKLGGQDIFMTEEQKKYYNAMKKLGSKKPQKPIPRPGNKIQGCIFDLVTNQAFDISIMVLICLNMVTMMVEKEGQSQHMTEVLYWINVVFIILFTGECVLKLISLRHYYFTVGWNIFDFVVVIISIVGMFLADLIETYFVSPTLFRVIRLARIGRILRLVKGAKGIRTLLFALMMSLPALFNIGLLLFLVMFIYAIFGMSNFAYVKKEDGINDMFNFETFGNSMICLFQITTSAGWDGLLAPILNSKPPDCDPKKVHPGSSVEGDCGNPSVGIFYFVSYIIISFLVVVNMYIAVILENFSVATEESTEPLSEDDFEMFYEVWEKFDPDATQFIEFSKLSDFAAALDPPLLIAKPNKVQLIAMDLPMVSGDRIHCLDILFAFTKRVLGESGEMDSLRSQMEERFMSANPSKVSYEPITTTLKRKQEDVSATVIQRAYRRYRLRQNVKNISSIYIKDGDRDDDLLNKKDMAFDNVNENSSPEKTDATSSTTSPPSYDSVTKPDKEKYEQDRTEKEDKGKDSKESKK
- Measurement Notes: Nav 1.7 IWB In Vitro Assay (IonWorks Barracuda)
- Type: cell-based
- Condition Set: HEK293 cells stably transfected with human Nav 1.7; IonWorks Barracuda population patch-clamp; cells clamped to −20 mV for 4 minutes with compound; 26th pulse; read-out: hNav1.7 IWB IC50
Checkbox rule: IC50 lower than 300 nM = rule met; IC50 not lower than 300 nM = rule not met.

Use the examples below as a reference point.
| Molecule | Group |
| --- | --- |
| COc1cc(-c2cc(C)cc(C(F)(F)F)c2)c(F)cc1-n1c2c(ccc1=O)CN(S(=O)(=O)Nc1cccnn1)CC2 [Example 75] | rule met |
| COc1cc(-c2cccc(OCC(F)(F)F)c2)c(F)cc1-n1c2c(ccc1=O)CN(S(=O)(=O)Nc1cccnn1)CC2 [Example 68] | rule met |
| COc1cc(-c2cc(F)cc(Cl)c2)c(F)cc1-n1c2c(ccc1=O)CN(S(=O)(=O)Nc1cccnn1)CC2 (single isomer, unassigned) [Example 38-M] | rule not met |

Prompt: Quick check: IC50 of COc1cc(-c2ccc(F)c(C)c2)c(Cl)cc1-n1c2c(ccc1=O)CN(S(=O)(=O)Nc1cccnn1)CC2 (racemic) [Example 92-(Rac)] under 300 nM?
Completion: rule met

Prompt: Same read-out for COc1cc(-c2ccc(F)c(C)c2)c(Cl)cc1-n1c2c(ccc1=O)CN(S(=O)(=O)Nc1cccnn1)CC2 (single isomer, unassigned) [Example 92-M] ?
Completion: rule met

Prompt: Lookup COc1cc(-c2ccc(F)c(F)c2)c(F)cc1-n1c2c(ccc1=O)CN(S(=O)(=O)Nc1ccon1)CC2 (single isomer, unassigned) [Example 20-M]
Completion: rule not met

Prompt: One more molecule: COc1cc(-c2ccc(Cl)c(C)c2)c(F)cc1-n1c2c(ccc1=O)CN(S(=O)(=O)Nc1ncccn1)CC2 (racemic) [Example 30]
Completion: rule met
